Reference source: patent US20140275490A1

# subject.of.test: T1, human IL-23R-mouse Fc fusion protein (human; mouse, UniProt Q5VWK5 24-353)
# T1 construct: Expressed in FreeStyle 293 cells, purified; immobilized on the ELISA plate at 500 ng/mL; also called human IL-23R-Fc fusion protein; not shown: Fc region of mouse immunoglobulin (IgG2a) as encoded by the vector pFUSE-mIgG2A-Fc2 (InvivoGen); limits and any linker r
# T1 sequence: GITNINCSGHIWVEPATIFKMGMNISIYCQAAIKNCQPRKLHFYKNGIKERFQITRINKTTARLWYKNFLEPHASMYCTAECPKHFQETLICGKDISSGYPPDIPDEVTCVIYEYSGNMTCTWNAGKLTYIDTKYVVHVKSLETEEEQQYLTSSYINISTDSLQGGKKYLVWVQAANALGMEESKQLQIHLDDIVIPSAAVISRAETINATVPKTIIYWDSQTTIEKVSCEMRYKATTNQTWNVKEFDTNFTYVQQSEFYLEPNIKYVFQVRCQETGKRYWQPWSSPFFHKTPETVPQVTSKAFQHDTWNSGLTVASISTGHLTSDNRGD
# assay.overview: antigen ELISA, human IL-23R-Fc immobilized, HRP anti-human IgG, chemiluminescence
Collected EC50 values appear next to each entry.
// return numeric value only (unit: µg/mL, not printed)

// recorded EC50 for fully human antibody 30-18 (antibody, human IgG1, kappa, V domains shown, Human Ig gamma1 / human kappa constant regions; also called 30-18 (fully human); fully human 30-18 antibody) VH: QVQLVQSGAEVKKPGASVKVSCKVSGYTLNELSIHWVRQAPGKGLEWMGGFDPEHSETLYAQNFQDRLTLTEDTSTETACMELNSLRSDDTAVYYCAAESYGDYEFWGQGTLVTVSS VL: DIQMTQSPSSVSASVGDRVTITCRASQDISSWLAWYQQKPGKAPKVLIYTASSLQSGVPSRFSGSGSGTDFTLTISSLQPEDFATYYCQQANSHPWTFGQGTKVEIKR : 0.0136

// recorded EC50 for fully human antibody 34-58 (antibody, human IgG1, kappa, V domains shown, Human Ig gamma1 / human kappa constant regions; also called 34-58 (fully human); fully human 34-58 antibody) VH: QVHLVQSGTEVRKPGASVKVSCKVSGYTLNELAIHWVRQAPGKGLEWMGGFDPEHGEIIYAQRFQGRITLPEDTSTDTAYMDLVNLRSEDTAVYFCTTEAAPFDYWGQGSLVIVSS VL: DIQMTQSPSTLSASVGDRVTITCRASQSLSNWLAWYQQKPGKAPKLLIYKASSLESGVPSRFSGSGSGTDFTLTISGLQPDDFATYYCQQYDIYPRTFGQGTKVEIKR : 0.0146

// recorded EC50 for fully human antibody 25-3 (antibody, human IgG1, kappa, V domains shown, Human Ig gamma1 / human kappa constant regions; also called 25-3 (fully human); fully human 25-3 antibody) VH: QVQLQESGPGQVKPSQTLSLTCSVSGGSIDSGDHYWTWIRQHPGEVLEWIGYIYSSGHTYYSPSLKSRLTMSLDTSKNQFSLRLSSVTAADTAVYYCARVGDYEWFDTWGQGTLVTVSS VL: DIVMTQSPDSLAVSLGERATINCKSSQTILYPSNNMNYLGWYQQRAGQSPRLLIYWASTRESGVPDRFSGSGSGTDFTLTISSLQAEDVAVYYCQQYYSSLPTFGQGTKVEIKR : 0.0195

// recorded EC50 for fully human antibody 30-15 (antibody, human IgG1, kappa, V domains shown, Human Ig gamma1 / human kappa constant regions; also called 30-15 (fully human); fully human 30-15 antibody) VH: QVQLVQSGAEVKKPGASMKVSCKVSGYTLNELSIHWVRQAPGKGLEWMGGFDPEHGETVYAQNFQDRVTLTEDTSTDTSYMGLNNLRSDDTAVYYCAAESYGDYEFWGQGTLVTVSS VL: DIQMTQSPSSVSASVGDRVTITCRASQGINNWLAWYQQKPGKAPKVLIYTASSLQSGVPSRFSGSGSGTDFTLTISSLQPEDFATYYCQQANSHPWTFGQGTKVEIKR : 0.0118

// recorded EC50 for fully human antibody 30-16 (antibody, human IgG1, kappa, V domains shown, Human Ig gamma1 / human kappa constant regions; also called 30-16 (fully human); fully human 30-16 antibody) VH: QVQVVQSGAEVKKPGASVKVSCKVSGYTLIELAIHWVRQVPGKGLEWMGGFDPEHGETIYAQKFQGRVTMTEDTSTDTAYMELNNLRSEDTAVYYCAILEAGDLDCWGQGTLVTVSS VL: DIQMTQSPSSVSASVGDRVTITCRASQGISNWLAWYQQKPGKAPKVLIYTASSLQSGVPSRFSGSGSGTDFTLTVSGLQPEDFGTYYCQQANSFPFTFGPGTKVDIKR : 0.0165

// recorded EC50 for fully human antibody 32-28 (antibody, human IgG1, kappa, V domains shown, Human Ig gamma1 / human kappa constant regions; also called 32-28 (fully human); fully human 32-28 antibody) VH: QVHLVQSGTEVRKPGASVKVSCKVSGYTLNELAIHWVRQAPGKGLEWMGGFDPEHGEIIYAQRFQGRVTLPEDTSTDTAYLDLFNLRSEDTAVYFCATEAAPFDYWGQGTLVIVSS VL: DIQMTQSPSTLSASVGDRVTITCRASQSLSSWLAWYQQKPGKAPKLLIYKASSLESGVPSRFSGSGSGTDFTLTISSLQPDDFATYYCQQYDIYPRTFGQGTKVEIKR : 0.0131
